Each recorded value in this set is attributed to ChEMBL document CHEMBL1909046.

Target system: Substance-P receptor (Homo sapiens, UniProt P25103); also: in other assays of this panel Not Active means under 50% inhibition at 10 µM
Sequence (P25103 whole entry): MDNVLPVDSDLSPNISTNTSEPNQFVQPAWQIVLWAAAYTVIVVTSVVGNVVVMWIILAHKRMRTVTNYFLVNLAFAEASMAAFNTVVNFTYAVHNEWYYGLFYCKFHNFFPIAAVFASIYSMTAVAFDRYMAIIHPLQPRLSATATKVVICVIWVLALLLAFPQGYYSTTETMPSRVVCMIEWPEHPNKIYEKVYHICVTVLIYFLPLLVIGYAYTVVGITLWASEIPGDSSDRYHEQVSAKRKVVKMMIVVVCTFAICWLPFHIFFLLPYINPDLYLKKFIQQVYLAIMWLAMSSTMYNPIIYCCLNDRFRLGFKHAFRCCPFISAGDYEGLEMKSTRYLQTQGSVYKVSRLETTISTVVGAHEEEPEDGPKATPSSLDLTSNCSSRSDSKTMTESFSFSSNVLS
Type: cell membranes, CHO, Membrane
Condition notes: read-out: IC50
Assay metric: IC50 (µM)
Please give a number only; it is taken to be in µM.

So what does the record say about IC50 for Clc1ccccc1C(c1ccccc1)(c1ccccc1)n1ccnc1 ?
16

* * *

Target system: Cholecystokinin receptor type A (Homo sapiens, UniProt P32238); also: in other assays of this panel Not Active means under 50% inhibition at 10 µM
Sequence (P32238 whole entry): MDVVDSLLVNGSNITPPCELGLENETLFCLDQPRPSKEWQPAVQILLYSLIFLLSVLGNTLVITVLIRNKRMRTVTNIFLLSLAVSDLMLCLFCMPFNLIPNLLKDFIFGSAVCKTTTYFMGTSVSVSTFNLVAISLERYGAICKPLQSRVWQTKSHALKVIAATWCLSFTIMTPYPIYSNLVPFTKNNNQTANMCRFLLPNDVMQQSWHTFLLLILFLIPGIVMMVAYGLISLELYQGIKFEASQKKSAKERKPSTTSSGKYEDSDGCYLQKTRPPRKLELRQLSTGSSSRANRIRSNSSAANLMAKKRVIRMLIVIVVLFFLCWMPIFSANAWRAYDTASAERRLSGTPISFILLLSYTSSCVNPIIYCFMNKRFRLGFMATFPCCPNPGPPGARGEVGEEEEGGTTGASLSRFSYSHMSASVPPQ
Assay type: cell membranes, Membrane
Condition notes: 1321-n1
Assay metric: IC50

Before answering, review these 4 worked examples.
C=C1[C@@H]2CCC3[C@@](CC[C@@H]4[C@H](C(=O)O)C[C@@H](O[C@@H]5O[C@H](CO)[C@@H](OS(=O)(=O)[O-])[C@H](OS(=O)(=O)[O-])[C@H]5OC(=O)CC(C)C)C[C@@]34C)(C2)[C@@H]1O.[K+].[K+] (stereo not given in full) [ATRACTYLOSIDE]    Not Active
O=C1NC(=O)C(c2ccccc2)(c2ccccc2)N1    Not Active
CN(C)[C@@H]1C(O)=C(C(N)=O)C(=O)[C@@]2(O)C(O)=C3C(=O)c4c(O)cccc4[C@@](C)(O)[C@H]3[C@H](O)[C@@H]12    Not Active
CCc1cccc2c3c([nH]c12)C(CC)(CC(=O)O)OCC3 (stereo not given)    Not Active

Value lookup for IC50; key = CC1(C)[C@@H](O[C@H]2O[C@H](C(=O)O)[C@@H](O)[C@H](O)[C@H]2O[C@@H]2O[C@H](C(=O)O)[C@@H](O)[C@H](O)[C@H]2O)CC[C@]2(C)[C@H]3C(=O)C=C4[C@@H]5C[C@@](C)(C(=O)O)CC[C@]5(C)CC[C@@]4(C)[C@]3(C)CC[C@@H]12
Not Active

* * *

Target system: Tyrosine-protein kinase Lck (Homo sapiens, UniProt P06239)
Sequence (P06239 whole entry): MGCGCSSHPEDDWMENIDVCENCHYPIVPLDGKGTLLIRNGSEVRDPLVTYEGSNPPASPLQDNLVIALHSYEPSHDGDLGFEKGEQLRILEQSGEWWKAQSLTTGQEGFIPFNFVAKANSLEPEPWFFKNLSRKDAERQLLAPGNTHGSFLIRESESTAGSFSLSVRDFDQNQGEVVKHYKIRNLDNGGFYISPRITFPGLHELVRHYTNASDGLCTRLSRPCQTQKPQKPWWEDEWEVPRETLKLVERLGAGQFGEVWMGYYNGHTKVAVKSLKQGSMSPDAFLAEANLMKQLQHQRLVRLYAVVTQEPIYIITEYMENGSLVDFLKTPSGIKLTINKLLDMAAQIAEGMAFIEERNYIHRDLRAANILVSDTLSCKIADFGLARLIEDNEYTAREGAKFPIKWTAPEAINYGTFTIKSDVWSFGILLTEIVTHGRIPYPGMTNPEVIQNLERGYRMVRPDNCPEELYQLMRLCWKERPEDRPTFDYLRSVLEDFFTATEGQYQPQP
Experiment description: DRUGMATRIX: Protein Tyrosine Kinase, LCK enzyme inhibition (substrate: Poly(Glu:Tyr))
Format: cell-based, Insect cells
Condition notes: insect cells; Not Active = under 50% inhibition at 10 µM
Assay metric: IC50

Study these solved cases before continuing.
O=C1CN=C(c2ccccc2)c2cc([N+](=O)[O-])ccc2N1    Not Active
O=C1OCCN1/N=C/c1ccc([N+](=O)[O-])o1    Not Active
O=c1[nH]cc(F)c(=O)[nH]1    Not Active
CN1CCC[C@H]1c1cccnc1    Not Active
O=C(O)c1cn(C2CC2)c2cc(N3CCNCC3)c(F)cc2c1=O    Not Active

What value of measured IC50 is listed for Cn1cnc([N+](=O)[O-])c1Sc1ncnc2nc[nH]c12 ?
Not Active

Consider the molecule shown here: CC=CC(=O)N(CC)c1ccccc1C What is its recorded IC50?
Not Active

Recorded IC50 of C[C@]12Cc3c[nH]nc3C[C@@H]1CC[C@@H]1[C@@H]2CC[C@@]2(C)[C@H]1CC[C@]2(C)O , please.
Not Active

* * *

Target system: 5-hydroxytryptamine receptor 6 (Homo sapiens); also: in other assays of this panel Not Active means under 50% inhibition at 10 µM
Sequence (P50406 whole entry): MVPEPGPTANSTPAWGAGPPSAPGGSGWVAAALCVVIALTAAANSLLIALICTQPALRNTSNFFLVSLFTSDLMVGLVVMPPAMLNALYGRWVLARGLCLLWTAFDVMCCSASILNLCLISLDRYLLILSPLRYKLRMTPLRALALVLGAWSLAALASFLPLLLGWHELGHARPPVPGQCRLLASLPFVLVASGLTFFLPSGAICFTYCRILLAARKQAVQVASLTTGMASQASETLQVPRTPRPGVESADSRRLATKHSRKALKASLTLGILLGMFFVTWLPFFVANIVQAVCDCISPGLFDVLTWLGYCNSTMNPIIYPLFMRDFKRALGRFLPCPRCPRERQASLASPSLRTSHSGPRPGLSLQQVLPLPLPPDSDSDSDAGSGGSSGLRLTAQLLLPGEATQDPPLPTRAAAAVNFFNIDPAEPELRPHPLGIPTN
Type: cell membranes, HeLa, Membrane
Condition notes: hela
Assay metric: IC50

Field: example entries. Status: answers known.
CC1(C)[C@H]2CC[C@]1(C)C(=O)C2 [(-)-CAMPHOR]    Not Active
O=c1cc(-c2ccccc2)oc2c1ccc1ccccc12 [ALPHA-NAPHTHOFLAVONE]    Not Active
COc1ccc2cc(CC(=O)O)ccc2c1    Not Active
CN[C@@H]1[C@@H](O)[C@@H](O[C@@H]2[C@@H](O)[C@H](O[C@H]3OC(CN)=CC[C@H]3N)[C@@H](N)C[C@H]2N)OC[C@]1(C)O [SISOMICIN]    Not Active
C=C1[C@@H]2CCC3[C@@](CC[C@@H]4[C@H](C(=O)O)C[C@@H](O[C@@H]5O[C@H](CO)[C@@H](OS(=O)(=O)[O-])[C@H](OS(=O)(=O)[O-])[C@H]5OC(=O)CC(C)C)C[C@@]34C)(C2)[C@@H]1O.[K+].[K+] (stereo partly drawn) [ATRACTYLOSIDE]    Not Active

# lookup: IC50 of COC(=O)[C@H](c1ccccc1Cl)N1CCc2sccc2C1 [CLOPIDOGREL]
Not Active

Form field: reported IC50 of NCC1(CC(=O)O)CCCCC1 [GABAPENTIN]
Not Active

I would be grateful if you could share the reported IC50 for CN(C)[C@@H]1C(O)=C(C(N)=O)C(=O)[C@@]2(O)C(O)=C3C(=O)c4c(O)cccc4[C@@](C)(O)[C@H]3[C@H](O)[C@@H]12 [OXYTETRACYCLINE] .
Not Active
